Reference for the values: the supplement of paper PMC9446081

# Experimental system: MurA (UniProt Q3YX52)
# Sequence (Q3YX52 whole entry): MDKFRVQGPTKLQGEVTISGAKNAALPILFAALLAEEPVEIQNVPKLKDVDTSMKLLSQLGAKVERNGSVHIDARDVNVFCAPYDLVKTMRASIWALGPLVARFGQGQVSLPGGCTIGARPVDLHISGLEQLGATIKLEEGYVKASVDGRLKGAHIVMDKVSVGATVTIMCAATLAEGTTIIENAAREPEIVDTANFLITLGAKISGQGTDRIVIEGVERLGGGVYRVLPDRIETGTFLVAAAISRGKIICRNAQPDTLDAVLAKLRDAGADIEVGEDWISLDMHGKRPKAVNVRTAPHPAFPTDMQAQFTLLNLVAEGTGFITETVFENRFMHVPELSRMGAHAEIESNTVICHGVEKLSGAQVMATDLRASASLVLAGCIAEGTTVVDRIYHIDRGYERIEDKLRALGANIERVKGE
# Protocol text: relative enzymatic activity vs untreated control (fraction); higher = less inhibition
# Experimental context: 100 µM; incubation time: 2 h at 37 C
Result type: relative enzymatic activity
Number only, no unit.

## Input What value of relative enzymatic activity has been recorded for this entry: CN(C)c1ccc(O)c2c1C[C@H]1C[C@H]3[C@H](N(C)C)C(=O)C(C(N)=O)=C(O)[C@@]3(O)C(=O)[C@H]1C2=O
## Output 0.0752

## Input Would you kindly repeat that for CCN1CCN(C(=O)NC(C(=O)NC2C(=O)N3C(C(=O)O)=C(CSc4nnnn4C)CSC23)c2ccc(O)cc2)C(=O)C1=O (configuration not stated) ?
## Output 0.0994

## Input Would you kindly repeat that for CN1CCN(c2c(F)cc3c(=O)c(C(=O)O)cn(CCF)c3c2F)CC1 ?
## Output 0.748

## Input Would you kindly repeat that for Cn1nnnc1SCC1=C(C(=O)[O-])N2C(=O)C(NC(=O)C(O)c3ccccc3)C2SC1.[Na+] (configuration not stated) ?
## Output 0.0762

## Input Would you kindly repeat that for N[C@@H]1CN(c2c(F)cc3c(=O)c(C(=O)O)cn([C@@H]4C[C@@H]4F)c3c2Cl)CC12CC2 ?
## Output 0.524

## Input Would you kindly repeat that for O=C1NCCN1c1ncc([N+](=O)[O-])s1 ?
## Output 0.658

## Input Would you kindly repeat that for CON=C(C(=O)N[C@@H]1C(=O)N2C(C(=O)OCOC(=O)C(C)(C)C)=C(C=Cc3scnc3C)CS[C@H]12)c1csc(N)n1 ?
## Output 0.335

## Input Would you kindly repeat that for Cl.N=C(N)n1cccn1 ?
## Output 0.813

## Input Would you kindly repeat that for NCCC(O)C(=O)NC1CC(N)C(OC2OC(CN)C(O)C(O)C2O)C(O)C1OC1OC(CO)C(O)C(N)C1O.O (configuration not stated) ?
## Output 0.963

## Input Would you kindly repeat that for Cl.O=C(O)c1cn(-c2ccc(F)cc2)c2cc(N3CCNCC3)c(F)cc2c1=O ?
## Output 0.698

## Input Would you kindly repeat that for CN(C)[C@@H]1C(=O)[C@@H](C(N)=O)C(=O)[C@@]2(O)C(=O)[C@@H]3C(=O)c4c(O)c(NC(=O)CN5CCCC5)cc(F)c4C[C@H]3C[C@@H]12 ?
## Output 0.63

## Input Would you kindly repeat that for NC(=O)[C@@H]1CC[C@@H]2CN1C(=O)N2OS(=O)(=O)O ?
## Output 0.699

## Input Would you kindly repeat that for COC(=O)N/N=C/c1ccc([N+](=O)[O-])o1 ?
## Output 0.255

## Input Would you kindly repeat that for CC(C)[C@@H](CC[C@@H](C)[C@H]1CC[C@H]2[C@@H]3[C@H](O)C[C@H]4C[C@@H](NCCCNCCCCN)CC[C@]4(C)[C@H]3CC[C@]12C)OS(=O)(=O)O ?
## Output 0.17

## Input Would you kindly repeat that for CC[C@H]1OC(=O)C[C@@H](O)[C@H](C)[C@@H](O[C@@H]2O[C@H](C)C[C@H](N(C)C)[C@H]2O)[C@@H](CC=O)C[C@@H](C)C(=O)/C=C/[C@]2(C)O[C@H]2[C@@H]1C ?
## Output 0.673

## Input Would you kindly repeat that for CN1CCN(c2c(F)cc3c(=O)c(C(=O)O)cn4c3c2SCC4)CC1 ?
## Output 0.764

## Input Would you kindly repeat that for CON=C(C(=O)NC1C(=O)N2C(C(=O)O)=C(CSC(=O)c3ccco3)CSC12)c1csc(N)n1.Cl (configuration not stated) ?
## Output 0.0647
